Provide the reported ED50 of each item.
Test system: Pseudomonas aeruginosa
Assay: Compound was evaluated in vivo for oral antibacterial activity against Pseudomonas aeruginosa 12 at a dose of 4E3
Format: functional
Quick reminder: number only, in mg/kg, skip the unit.

ED50 reading for NC1CCN(c2nc3c(cc2F)c(=O)c(C(=O)O)cn3CCF)C1 (centres undefined) : 6.3

ED50 reading for C=Cn1cc(C(=O)O)c(=O)c2cc(F)c(N3CCC(NC)C3)nc21 (centres undefined) : 3.7

ED50 reading for CCn1cc(C(=O)O)c(=O)c2cc(F)c(N3CCC(O)C3)nc21 (centres undefined) : 42

ED50 reading for CNC1CCN(c2nc3c(cc2F)c(=O)c(C(=O)O)cn3CCF)C1 (centres undefined) : 19.3

---

Tested on: Escherichia coli
Experiment: Compound was evaluated in vivo for oral antibacterial activity against Escherichia coli P-5101 at a dose of 9E6
Format: functional
Result type: ED50 (mg/kg)
Quick reminder: number only, in mg/kg, skip the unit.

ED50 reading for CCn1cc(C(=O)O)c(=O)c2cc(F)c(N3CCC(N)C3)nc21 (stereo not given) : 1.7

ED50 reading for C=Cn1cc(C(=O)O)c(=O)c2cc(F)c(N3CCC(N)C3)nc21 (stereo not given) : 0.72

ED50 reading for CNC1CCN(c2nc3c(cc2F)c(=O)c(C(=O)O)cn3CCF)C1 (stereo not given) : 2.8

ED50 reading for CCn1cc(C(=O)O)c(=O)c2cc(F)c(N3CCC(N)CC3)nc21 : 6.3

ED50 reading for CCn1cc(C(=O)O)c(=O)c2cc(F)c(N3CC(N)C3)nc21 : 4.1

ED50 reading for CCn1cc(C(=O)O)c(=O)c2cc(F)c(N3CCNCC3)nc21 : 1.8

ED50 reading for CCn1cc(C(=O)O)c(=O)c2cc(F)c(N3CCC(NC)C3)nc21 (stereo not given) : 1.4

ED50 reading for NC1CCN(c2nc3c(cc2F)c(=O)c(C(=O)O)cn3CCF)C1 (stereo not given) : 2.8

ED50 reading for CCn1cc(C(=O)O)c(=O)c2cc(F)c(N3CCC(O)C3)nc21 (stereo not given) : 6.8

ED50 reading for C=Cn1cc(C(=O)O)c(=O)c2cc(F)c(N3CCC(NC)C3)nc21 (stereo not given) : 2

---

Test system: Pseudomonas aeruginosa
Test: in vitro antibacterial activity against Pseudomonas aeruginosa Tsuchijima
Format: functional
Provide the reported log10 of MIC of each item.
Remember, log10 of MIC, in µg/mL.

log10 of MIC reading for CCn1cc(C(=O)O)c(=O)c2cc(F)c(N3CCNCC3)nc21 [ENOXACIN] : -0.11

log10 of MIC reading for C=Cn1cc(C(=O)O)c(=O)c2cc(F)c(N3CCC(NCC(F)(F)F)C3)nc21 (stereo not given) : 2.00

log10 of MIC reading for CCn1cc(C(=O)O)c(=O)c2cc(F)c(N3CCC(NC=O)C3)nc21 (stereo not given) : 0.50

log10 of MIC reading for CCn1cc(C(=O)O)c(=O)c2cc(F)c(N3CCC(N(C)C)C3)nc21 (stereo not given) : 0.80

log10 of MIC reading for CCn1cc(C(=O)O)c(=O)c2cc(F)c(N3CC(N)C3)nc21 : -0.11

log10 of MIC reading for CCn1cc(C(=O)O)c(=O)c2cc(F)c(N3CCC(NC)C3)nc21 (stereo not given) : 0.19

log10 of MIC reading for CCn1cc(C(=O)O)c(=O)c2cc(F)c(N3CCC(N)CC3)nc21 : 0.19

log10 of MIC reading for NC1CCN(c2nc3c(cc2F)c(=O)c(C(=O)O)cn3CCF)C1 (stereo not given) : -0.41

log10 of MIC reading for C=Cn1cc(C(=O)O)c(=O)c2cc(F)c(N3CCC(N)C3)nc21 (stereo not given) : -0.70

log10 of MIC reading for CCn1cc(C(=O)O)c(=O)c2cc(F)c(N3CC(O)C3)nc21 : 0.50

---

Provide the reported ED50 of each item.
Tested on: Pseudomonas aeruginosa
Assay: Compound was evaluated in vivo for oral antibacterial activity against Pseudomonas aeruginosa 12 at a dose of 4E3
Format: functional

ED50 reading for CCn1cc(C(=O)O)c(=O)c2cc(F)c(N3CCNCC3)nc21 : 9 mg/kg

ED50 reading for CCn1cc(C(=O)O)c(=O)c2cc(F)c(N3CC(N)C3)nc21 : 12.5 mg/kg

ED50 reading for C=Cn1cc(C(=O)O)c(=O)c2cc(F)c(N3CCC(N)C3)nc21 (stereo not given) : 1.6 mg/kg

ED50 reading for CCn1cc(C(=O)O)c(=O)c2cc(F)c(N3CCC(NC)C3)nc21 (stereo not given) : 6.5 mg/kg

ED50 reading for CCn1cc(C(=O)O)c(=O)c2cc(F)c(N3CCC(N)C3)nc21 (stereo not given) : 3.7 mg/kg

---

Provide the reported MIC of each item.
System: Pseudomonas aeruginosa
Experiment: in vitro antibacterial activity against Pseudomonas aeruginosa Tsuchijima
Format: functional
Quick reminder: number only, in µg/mL, skip the unit.

MIC reading for CCNC1CCN(c2nc3c(cc2F)c(=O)c(C(=O)O)cn3CC)C1 (stereo not drawn) : 3.13

MIC reading for CC(=O)NC1CCN(c2nc3c(cc2F)c(=O)c(C(=O)O)cn3CCF)C1 (stereo not drawn) : 25

MIC reading for C=Cn1cc(C(=O)O)c(=O)c2cc(F)c(N3CCC(N(C)C(C)=O)C3)nc21 (stereo not drawn) : 25

MIC reading for CCn1cc(C(=O)O)c(=O)c2cc(F)c(N3CCC(O)CC3)nc21 : 6.25

MIC reading for CCn1cc(C(=O)O)c(=O)c2cc(F)c(N3CCC(CN)CC3)nc21 : 12.5

MIC reading for CCn1cc(C(=O)O)c(=O)c2cc(F)c(N3CCC(O)C3)nc21 (stereo not drawn) : 0.78

MIC reading for C=Cn1cc(C(=O)O)c(=O)c2cc(F)c(N3CCC(NC)C3)nc21 (stereo not drawn) : 0.78

MIC reading for CCn1cc(C(=O)O)c(=O)c2cc(F)c(N3CCCC(O)C3)nc21 (stereo not drawn) : 25

MIC reading for CCn1cc(C(=O)O)c(=O)c2cc(F)c(N3CCC(NN)C3)nc21 (stereo not drawn) : 12.5

MIC reading for C=Cn1cc(C(=O)O)c(=O)c2cc(F)c(N3CCC(NC(C)=O)C3)nc21 (stereo not drawn) : 12.5

MIC reading for CCn1cc(C(=O)O)c(=O)c2cc(F)c(N3CCC(Cl)C3)nc21 (stereo not drawn) : 12.5

MIC reading for CCn1cc(C(=O)O)c(=O)c2cc(F)c(N3CCC(NC(N)=O)C3)nc21 (stereo not drawn) : 25

MIC reading for CCn1cc(C(=O)O)c(=O)c2cc(F)c(N3CC(N)C(O)C3)nc21 (stereo not drawn) : 3.13

MIC reading for CCn1cc(C(=O)O)c(=O)c2cc(F)c(N3CCC(NC(=O)C(F)(F)F)C3)nc21 (stereo not drawn) : 6.25

MIC reading for CN(C)C1CCN(c2nc3c(cc2F)c(=O)c(C(=O)O)cn3CCF)C1 (stereo not drawn) : 6.25

MIC reading for CCn1cc(C(=O)O)c(=O)c2cc(F)c(N3CC(OC)C3)nc21 : 6.25

MIC reading for CCn1cc(C(=O)O)c(=O)c2cc(F)c(N3CCC(NC(C)=O)C3)nc21 (stereo not drawn) : 6.25

MIC reading for C=Cn1cc(C(=O)O)c(=O)c2cc(F)c(N3CC(N)C3)nc21 : 0.39

MIC reading for CCn1cc(C(=O)O)c(=O)c2cc(F)c(N3CCC(NCC(F)(F)F)C3)nc21 (stereo not drawn) : 50

MIC reading for CCn1cc(C(=O)O)c(=O)c2cc(F)c(N3CCC(N)C3)nc21 (stereo not drawn) : 0.39

MIC reading for C=Cn1cc(C(=O)O)c(=O)c2cc(F)c(N3CCC(N(C)C)C3)nc21 (stereo not drawn) : 3.13

MIC reading for CCn1cc(C(=O)O)c(=O)c2cc(F)c(N3CCC(CNC(C)=O)CC3)nc21 : 25

---

Tested on: Pseudomonas aeruginosa
Test: in vitro antibacterial activity against Pseudomonas aeruginosa Tsuchijima
Assay type: functional
Provide the reported log10(MIC) of each item.
Remember, log10 of MIC, in µg/mL.

For C=Cn1cc(C(=O)O)c(=O)c2cc(F)c(N3CCC(NC=O)C3)nc21 (stereo not given) on Pseudomonas aeruginosa, measured log10(MIC) was 0.50

For CCn1cc(C(=O)O)c(=O)c2cc(F)c(N3CCCC(N)C3)nc21 (stereo not given) on Pseudomonas aeruginosa, measured log10(MIC) was 0.80

For CCn1cc(C(=O)O)c(=O)c2cc(F)c(N3CCC(N(C)C(C)=O)C3)nc21 (stereo not given) on Pseudomonas aeruginosa, measured log10(MIC) was 1.40

For CNC1CCN(c2nc3c(cc2F)c(=O)c(C(=O)O)cn3CCF)C1 (stereo not given) on Pseudomonas aeruginosa, measured log10(MIC) was -0.11

For CCn1cc(C(=O)O)c(=O)c2cc(F)c(N3CCC(OC=O)C3)nc21 (stereo not given) on Pseudomonas aeruginosa, measured log10(MIC) was 0.50

For CCn1cc(C(=O)O)c(=O)c2cc(F)c(N3CC(N4CCOCC4)C3)nc21 on Pseudomonas aeruginosa, measured log10(MIC) was 1.70

For CCOC1CN(c2nc3c(cc2F)c(=O)c(C(=O)O)cn3CC)C1 on Pseudomonas aeruginosa, measured log10(MIC) was 1.40

For CCn1cc(C(=O)O)c(=O)c2cc(F)c(N3CCCC(C(N)=O)C3)nc21 (stereo not given) on Pseudomonas aeruginosa, measured log10(MIC) was 1.70

For CC(=O)N(C)C1CCN(c2nc3c(cc2F)c(=O)c(C(=O)O)cn3CCF)C1 (stereo not given) on Pseudomonas aeruginosa, measured log10(MIC) was 1.40
